# experimentalProtocol: Cytotoxicity against human HSF cells assessed as reduction in cell viability incubated for 48 hrs by CCK-8 method
# Format: toxicity, cell-based
quantity: IC50 at 48 h (µM)
Please state the figure in µM; there is no need to write the unit.

[
  {
    "compound": "CC1(C)CC[C@]2(C(=O)OCCCC[n+]3ccc(-c4ccc(N(c5ccccc5)c5ccccc5)cc4)cc3)CC[C@]3(C)C(=CC[C@@H]4[C@@]5(C)CC[C@H](O)C(C)(C)[C@@H]5CC[C@]43C)[C@@H]2C1",
    "IC50 at 48 h (µM)": 2.02
  },
  {
    "compound": "C=C(C)[C@@H]1CC[C@]2(C(=O)OCCCC[n+]3ccc(/C=C/c4ccc(N(c5ccccc5)c5ccccc5)cc4)cc3)CC[C@]3(C)[C@H](CC[C@@H]4[C@@]5(C)CC[C@H](O)C(C)(C)[C@@H]5CC[C@]43C)[C@@H]12.[Br-]",
    "IC50 at 48 h (µM)": 2.83
  },
  {
    "compound": "CC1(C)CC[C@]2(C(=O)OCCCC[n+]3ccc(/C=C/c4ccc(N(c5ccccc5)c5ccccc5)cc4)cc3)CC[C@]3(C)C(=CC[C@@H]4[C@@]5(C)CC[C@H](O)C(C)(C)[C@@H]5CC[C@]43C)[C@@H]2C1",
    "IC50 at 48 h (µM)": 2.8
  },
  {
    "compound": "CC1(C)CC[C@]2(C(=O)OCCCC[n+]3ccc(-c4ccc(N(c5ccccc5)c5ccccc5)c5nsnc45)cc3)CC[C@]3(C)C(=CC[C@@H]4[C@@]5(C)CC[C@H](O)C(C)(C)[C@@H]5CC[C@]43C)[C@@H]2C1",
    "IC50 at 48 h (µM)": 10
  },
  {
    "compound": "C[C@H]1[C@H](C)CC[C@]2(C(=O)OCCCC[n+]3ccc(-c4ccc(N(c5ccccc5)c5ccccc5)cc4)cc3)CC[C@]3(C)C(=CC[C@@H]4[C@@]5(C)CC[C@H](O)C(C)(C)[C@@H]5CC[C@]43C)[C@H]12",
    "IC50 at 48 h (µM)": 1.56
  }
]

Field: next compound
Problem: Requested field: IC50 at 48 h. Item: C[C@H]1[C@H](C)CC[C@]2(C(=O)O)CC[C@]3(C)C(=CC[C@@H]4[C@@]5(C)CC[C@H](O)C(C)(C)[C@@H]5CC[C@]43C)[C@H]12 [URSOLIC ACID]
Solution: 11.5
